Cited source: patent US6383762B1

# tested-system: cloned human 5-HT2 receptor (Homo sapiens, UniProt P28223)
# Construct: Clone 6B contained the entire coding region for a 5-HT2 receptor; expressed in transfected cells
# Sequence (P28223 whole entry): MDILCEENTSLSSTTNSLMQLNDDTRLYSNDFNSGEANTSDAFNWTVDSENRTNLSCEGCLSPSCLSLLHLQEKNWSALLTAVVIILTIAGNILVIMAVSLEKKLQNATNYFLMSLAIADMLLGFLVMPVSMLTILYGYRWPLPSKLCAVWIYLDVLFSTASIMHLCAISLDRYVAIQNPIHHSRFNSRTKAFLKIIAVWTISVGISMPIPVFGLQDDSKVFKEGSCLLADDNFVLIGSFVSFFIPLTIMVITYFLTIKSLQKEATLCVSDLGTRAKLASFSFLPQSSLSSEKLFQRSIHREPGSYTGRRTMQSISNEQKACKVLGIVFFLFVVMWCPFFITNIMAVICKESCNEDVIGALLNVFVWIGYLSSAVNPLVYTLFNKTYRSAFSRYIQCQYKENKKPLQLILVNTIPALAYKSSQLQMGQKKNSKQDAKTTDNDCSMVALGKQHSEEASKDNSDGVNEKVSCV
# assay-name: Competition for 3H-Ketanserin binding, cloned human 5-HT2 receptor in stably transfected Ltk- cell membranes
# assay-context: cloned human 5-HT2 receptor expressed in Ltk- cells; 3H-Ketanserin radioligand
Ki: recorded values
The response must be a number in nM with no trailing unit.

input-smiles: NCCc1c[nH]c2ccc(C(N)=O)cc12
Ki (nM): 3030

Next, consider the following molecule.
Input CN1C[C@@H](NS(=O)(=O)N(C)C)C[C@@H]2c3cccc4c3c(cn4C)C[C@H]21 . Output Ki: 146
